Assay Procedure: ATG_CMV_CIS: Attagene CIS-FACTORIAL HepG2 Assay for human CMV (Internal Marker) (AID 2282928);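 note: endpoint acts as a background internal control marker rather than a target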
Stated Conditions: HepG2 CMV promoter reporter, transcription factor profiling; actives raise or lower the signal
Calls of active or inactive are those of the source. Rule for the calls: active = hit-call score of the fitted dose curve at least 0.9, where 1 is the maximum; inactive = score below 0.9.
Give your call using only these classes: active, inactive

Input: What classification did `CCCCOCCOCCSC#N` end up with in this test?
Output: inactive

Input: What classification did `Nc1cc([N+](=O)[O-])ccc1O` end up with in this test?
Output: inactive

Input: What classification did `CSc1nc(NC2CC2)nc(NC(C)(C)C)n1` end up with in this test?
Output: active

Input: What classification did `CCCCCCCCCCCCCOS(=O)(=O)O` end up with in this test?
Output: inactive

Input: What classification did `CCCCCCCCCCCCN(CCCCCCCCCCCC)CCCCCCCCCCCC` end up with in this test?
Output: inactive

Input: What classification did `O=C1OC2(c3cc(Br)c(O)c(Br)c3Oc3c2cc(Br)c(O)c3Br)c2c(Cl)c(Cl)c(Cl)c(Cl)c21` end up with in this test?
Output: inactive

Input: What classification did `CCCc1c(OCCCOc2ccc(OCC(=O)O)cc2)ccc(C(C)=O)c1O` end up with in this test?
Output: active

Input: What classification did `CSc1nnc(C(C)(C)C)c(=O)[nH]1` end up with in this test?
Output: inactive

###

Assay Procedure: ATG_RORE_CIS: Attagene CIS-FACTORIAL HepG2 Assay for human RAR-related Orphan Receptor Element (RORE) (AID 2282959)
Stated Conditions: HepG2 Attagene cis-factorial RORE reporter, mRNA; actives raise or lower the signal
Calls of active or inactive are those of the source. The calls were made as follows: active = hit-call score of the fitted dose curve at least 0.9, where 1 is the maximum; inactive = score below 0.9.
Give your call using only these classes: active, inactive

Input: What classification did `Sc1nc(S)nc(S)n1` end up with in this test?
Output: inactive

Input: What classification did `C=C[C@@H](C)CCC=C(C)C` end up with in this test?
Output: inactive

Input: What classification did `Nc1cc(Cl)c(O)c(Cl)c1` end up with in this test?
Output: active

Input: What classification did O=C=NC1CCC(CC2CCC(N=C=O)CC2)CC1 (stereo not given) end up with in this test?
Output: active

Input: What classification did `O=C(O)CCCCCCCC(=O)O` end up with in this test?
Output: inactive

###

Read-out: Matrix Metallopeptidase 1 (MMP1), MMP1 (gene 4312)
Assay Procedure: BSK_BE3C_MMP1: BioMAP Diversity Plus: BE3C Assay for Matrix Metallopeptidase 1 (MMP1) Biomarker Activity (AID 2283024)
Stated Conditions: primary human bronchial epithelial cells; actives raise or lower the signal
Active and inactive are the calls of the source. How the source made its calls: active means hit-call score of the fitted dose curve at least 0.9, where 1 is the maximum; inactive means score below 0.9.
Readout Kind: outcome

[[record]]
molecule = "CCCCCCCCCCCCCCCCCC(=O)OCC(CC)CCCC (stereo not drawn)"
result = "inactive"

[[record]]
molecule = "CC(=O)/C=C/C1=C(C)CCCC1(C)C"
result = "inactive"

[[record]]
molecule = "C=CCOC(=O)CCC1CCCCC1"
result = "inactive"


###

Assay Procedure: ATG_NRF2_ARE_CIS: Attagene CIS-FACTORIAL HepG2 Assay for human Nuclear Factor Erythroid 2 Related Factor 2 (NFR2) response to Antioxidant Response Elements (ARE) (AID 2282992);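 for AC50: reporter mRNA level measured by RT-PCR and capillary electrophoresis fluorescence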
Stated Conditions: HepG2 Attagene ARE/NRF2 reporter, transcription factor activity; actives raise or lower the signal
The source made the active and inactive calls. How the source made its calls: active means hit-call score of the fitted dose curve at least 0.9, where 1 is the maximum; inactive means score below 0.9.
Readout Kind: AC50

The following molecules have reported results that may help.
[[record]]
molecule = "CC(C)=CCCC(C)=CCCC(C)=CCO"
result = "18.8 µM (active)"

[[record]]
molecule = "COC(C)CCO (stereo not drawn)"
result = "63.3 µM (active)"

[[record]]
molecule = "CC(=O)OCc1ccc2c(c1)OCO2"
result = "inactive"

[[record]]
molecule = "CC1=CCC2C(C1)C2(C)C (stereo not drawn)"
result = "48.8 µM (active)"

[[record]]
molecule = "C=CCOc1nc(OCC=C)nc(OCC=C)n1"
result = "inactive"

[[record]]
molecule = "CC1(C)[C@H]2CC[C@]1(C)[C@H](O)C2"
result = "inactive"

[[record]]
molecule = "CN(C)c1ccc(O)c2c1C[C@H]1C[C@H]3[C@H](N(C)C)C(=O)C(C(N)=O)=C(O)[C@@]3(O)C(=O)C1=C2O"
result = "inactive"

[[record]]
molecule = "CC(C)(N)CO"
result = "inactive"


Input: Could you share which AC50 value was measured for `O=C(O)CCSCCC(=O)O` ?
Output: inactive

Input: Could you share which AC50 value was measured for `CCCCCCCCCCN` ?
Output: inactive

Input: Could you share which AC50 value was measured for COc1ccnc(CS(=O)c2nc3cc(OC(F)F)ccc3[nH]2)c1OC (stereo not drawn) ?
Output: 59.4 µM (active)

Input: Could you share which AC50 value was measured for `O=[N+]([O-])c1ccc(Nc2ccc(Nc3ccccc3)c(S(=O)(=O)O)c2)c([N+](=O)[O-])c1` ?
Output: 171 µM (active)

Input: Could you share which AC50 value was measured for `CC1=CC(=O)NS(=O)(=O)O1` ?
Output: inactive

Input: Could you share which AC50 value was measured for `CCCCCCCCCOC(C)=O` ?
Output: inactive

Input: Could you share which AC50 value was measured for CCC(C)CCCC(C)(C)O (stereo not drawn) ?
Output: inactive

Input: Could you share which AC50 value was measured for CC(C)C1CCC(O)CC1 (stereo not drawn) ?
Output: inactive

###

Target System: Aryl hydrocarbon receptor (Homo sapiens)
Assay Procedure: ATG_Ahr_CIS: Attagene CIS-FACTORIAL HepG2 Assay for human Aryl Hydrocarbon Receptor (Ahr) (AID 2282930)
Stated Conditions: HepG2 AhR cis-factorial reporter transcription; actives raise or lower the signal
The source made the active and inactive calls. The calls were made as follows: active = hit-call score of the fitted dose curve at least 0.9, where 1 is the maximum; inactive = score below 0.9.
Give your call using only these classes: active, inactive

Input: What classification did `COc1ccc(OC)c(OC)c1` end up with in this test?
Output: inactive

Input: What classification did `CC(=O)C(=O)O` end up with in this test?
Output: inactive

Input: What classification did `CNC(=O)Oc1ccc2c(c1)[C@]1(C)CCN(C)[C@@H]1N2C` end up with in this test?
Output: inactive

Input: What classification did C=CC(C)(CCC=C(C)C)OC=O (configuration not stated) end up with in this test?
Output: inactive

Input: What classification did `CCCCCCCCCCCCOCCO` end up with in this test?
Output: active

Input: What classification did `c1ccc(CCCc2ccccn2)cc1` end up with in this test?
Output: inactive

Input: What classification did CC1=CCC(O)(C(C)C)CC1 (configuration not stated) end up with in this test?
Output: inactive

Input: What classification did `CNC[C@H](O)c1cccc(O)c1` end up with in this test?
Output: inactive

Input: What classification did OC1C(O)C(O)C(O)C(O)C1O (configuration not stated) end up with in this test?
Output: active

Input: What classification did `CCCCCCOC(=O)CCCCC` end up with in this test?
Output: inactive

Input: What classification did `Nc1cc(Cl)c(O)c(Cl)c1` end up with in this test?
Output: inactive

Input: What classification did `O=C(O)c1ccc(C(=O)O)cc1` end up with in this test?
Output: inactive

Input: What classification did CC(C)=CCCC(C)CC=O (configuration not stated) end up with in this test?
Output: inactive

Input: What classification did `CC(C)C[C@H]1C(=O)N2CCC[C@H]2[C@]2(O)O[C@](NC(=O)[C@@H]3C=C4c5cccc6[nH]c(Br)c(c56)C[C@H]4N(C)C3)(C(C)C)C(=O)N12` end up with in this test?
Output: inactive

Input: What classification did `N#Cc1ccccc1` end up with in this test?
Output: inactive

Input: What classification did CC1(CO)CN(c2ccccc2)NC1=O (configuration not stated) end up with in this test?
Output: active

Input: What classification did `O=[N+]([O-])c1ccc(Nc2ccc(Nc3ccccc3)c(S(=O)(=O)O)c2)c([N+](=O)[O-])c1` end up with in this test?
Output: active

Input: What classification did CN1Cc2c(N)cccc2C(c2ccccc2)C1 (configuration not stated) end up with in this test?
Output: active

Input: What classification did `CCc1ccc(C=O)cc1` end up with in this test?
Output: inactive

Input: What classification did `OCC(CO)(CO)COCC(CO)(CO)CO` end up with in this test?
Output: inactive

Input: What classification did `O=P(c1ccccc1)(c1ccccc1)c1ccccc1` end up with in this test?
Output: inactive

Input: What classification did `Cc1ccc(C=O)cc1` end up with in this test?
Output: inactive

Input: What classification did `COc1cc(C)cc(O)c1` end up with in this test?
Output: inactive

Input: What classification did O=C(O)CCCCC1CCSS1 (configuration not stated) end up with in this test?
Output: inactive

Input: What classification did `CCCCCCCCCCCCN(CCCCCCCCCCCC)CCCCCCCCCCCC` end up with in this test?
Output: inactive

Input: What classification did `CCCCCC=CCC(=O)OC` end up with in this test?
Output: inactive

Input: What classification did `O=C(O)c1cccc(C(F)(F)F)c1` end up with in this test?
Output: inactive

Input: What classification did `C[C@H]1C[C@H]2[C@@H]3CCC4=CC(=O)C=C[C@]4(C)[C@@]3(F)[C@@H](O)C[C@]2(C)[C@@]1(O)C(=O)COP(=O)(O)O` end up with in this test?
Output: inactive

Input: What classification did `CCN(CC)CCOC(=O)c1ccc(N)cc1` end up with in this test?
Output: inactive

Input: What classification did CCCCCCCCCCCCCCCCCC(=O)OCC(CC)CCCC (configuration not stated) end up with in this test?
Output: inactive

Input: What classification did `CCCC(=O)c1cc(O)c(O)cc1O` end up with in this test?
Output: inactive

Input: What classification did `CC(C)(Oc1ccc(CCNC(=O)c2ccc(Cl)cc2)cc1)C(=O)O` end up with in this test?
Output: inactive

Input: What classification did CC(CCO)CCCC(C)(C)O (configuration not stated) end up with in this test?
Output: inactive

Input: What classification did OC1OC[C@@H](O)[C@H](O)[C@H]1O (some centres not stated) end up with in this test?
Output: inactive

Input: What classification did CCCC1CCC(=O)O1 (configuration not stated) end up with in this test?
Output: active

Input: What classification did `Clc1ccc(Cl)c(Cl)c1Cl` end up with in this test?
Output: active

Input: What classification did `OC[C@H]1O[C@H](O[C@]2(CCl)O[C@H](CCl)[C@@H](O)[C@@H]2O)[C@H](O)[C@@H](O)[C@H]1Cl` end up with in this test?
Output: inactive

Input: What classification did `CC(C)=CCC/C(C)=C/COC=O` end up with in this test?
Output: inactive

Input: What classification did `O=C(O)c1cn(C2CC2)c2cc(N3CCNCC3)c(F)cc2c1=O` end up with in this test?
Output: inactive

Input: What classification did `C=O` end up with in this test?
Output: inactive

Input: What classification did `OCCN1CCNCC1` end up with in this test?
Output: inactive

Input: What classification did `CCn1c2ccccc2c2cc(N)ccc21` end up with in this test?
Output: active

Hello, the source for this data is PubChem BioAssay (EPA / NIEHS), in case you need it.
